Assay: qHTS assay for small molecule agonists of the antioxidant response element (ARE) signaling pathway - cell viability counter screen (AID 743203); note: nearly all actives have a fitted effect of over 55% in size
Conditions: ARE-bla HepG2 viability, CellTiter-Glo luminescence, 16 h; series mostly up to 73.3 µM
Excerpt: National Center for Advancing Translational Sciences [NCATS] NIH Chemical Genomics Center [NCGC] U.S. Environmental Protection Agency [EPA] National Institutes of Environmental Health Sciences [NIEHS] National Toxicology Program [NTP] U.S. Food and Drug Administration [FDA] Oxidative stress has been implicated in the pathogenesis of a variety of diseases ranging from cancer to neurodegeneration. […] The activation of the report gene under culture conditions can be detected by fluorescence intensity. […]
Inconclusive results are not listed. The source made the active and inactive calls. Calls come from the whole dose curve.
Outcomes: active, inactive

> print(dat)
                                    compound  category.label
 1  O=c1c2ccccc2c(=O)c2c1cc(Cl)c1[nH]c3c([nH]c12)c(Cl)cc1c(=O)c2ccccc2c(=O)c13        inactive
 2  COC(=O)N(OC)c1ccccc1COc1ccn(-c2ccc(Cl)cc2)n1          active
 3               Nc1ccc(Cl)cc1C(=O)c1ccccc1F        inactive
 4                              O=NN(CCO)CCO        inactive
 5  CCC(OC(C)=O)C(CC(C)NC)(c1ccccc1)c1ccccc1 (centres undefined)          active
 6   CC(=O)[O-].CC(=O)[O-].CC(=O)[O-].[Cr+3]        inactive
 7                        ClC(Cl)C(Cl)(Cl)Cl        inactive
 8  O.O.O.O=C([O-])[C@H]([O-])[C@@H]([O-])C(=O)[O-].O=C([O-])[C@H]([O-])[C@@H]([O-])C(=O)[O-].[K+].[K+].[Sb+3].[Sb+3]        inactive
 9  ClC1=C(Cl)[C@]2(Cl)[C@@H]3[C@H]4C[C@H]([C@@H]5O[C@H]45)[C@@H]3[C@@]1(Cl)C2(Cl)Cl        inactive
10                          C=Cc1cccc(CCl)c1        inactive
11  CCN(CC)C(=O)N[C@@H]1C=C2c3cccc4[nH]cc(c34)C[C@@H]2N(C)C1        inactive
12                             N#CSCc1ccccc1        inactive
13         Clc1ccc(C2(Cn3cncn3)OCCO2)c(Cl)c1        inactive
14        CCOP(=S)(OCC)Oc1cc(C)nc(N(CC)CC)n1        inactive
15                           CSC(C)(C)/C=N/O        inactive
16  CC(C)[C@@H](Nc1ccc(C(F)(F)F)cc1Cl)C(=O)OC(C#N)c1cccc(Oc2ccccc2)c1 (some centres undefined)        inactive
17        O=C(O)CCCCCCNC1c2ccccc2CCc2ccccc21        inactive
18                          Nc1nc(N)nc(Cl)n1        inactive
19                            C#CC1(O)CCCCC1        inactive
20  C#CCC1=C(C)C(OC(=O)C2C(C=C(C)C)C2(C)C)CC1=O (centres undefined)        inactive
21  CC(=O)[O][Sn]([c]1ccccc1)([c]1ccccc1)[c]1ccccc1          active
22                             CCN(CC)C(=S)S        inactive
23  Cc1nn(-c2cc(NS(C)(=O)=O)c(Cl)cc2Cl)c(=O)n1C(F)F        inactive
24             O=[N+]([O-])c1ccccc1-c1ccccc1        inactive

====

assay: qHTS assay to identify small molecule antagonists of the vitamin D receptor (VDR) signaling pathway - cell viability counter screen (AID 743225); conditions: VDR-bla HEK293T viability, CellTiter-Glo luminescence, 16 h; series mostly up to 61 µM; note: nearly all actives have a fitted effect of over 50% in size
Records with an inconclusive call do not appear. Active and inactive are the calls of the source. Calls come from the whole dose curve; as a rule, active = well fitted cell-killing curve with a large enough effect in the repeat runs; inconclusive = weak or mixed curves, or effect the other way; inactive = no such curve, though single readings can be large or run the other way.
Outcomes: active, inactive

> print(dat)
                                    compound  category.label
 1           Brc1ccc(Oc2ccc(Br)cc2Br)c(Br)c1        inactive
 2  CCCCCCC[CH2][Sn]([Cl])([Cl])[CH2]CCCCCCC        inactive
 3                        [Cl][Hg][c]1ccccc1          active
 4                       O=[N+]([O-])C(Br)Br        inactive
 5                          Nc1nc(N)nc(Cl)n1        inactive
 6              CC(Cl)CCl (stereo not drawn)        inactive
 7                COc1c2c(cc3c1OCO3)CCN(C)C2        inactive
 8  FC(F)C(F)(F)OCC(Cn1cncn1)c1ccc(Cl)cc1Cl (stereo not drawn)        inactive
 9  COc1ccc2c(c1OC)C(=O)O[C@@H]2[C@H]1c2cc3c(cc2CCN1C)OCO3        inactive
10  CN1CCc2cc(Cl)c(O)cc2[C@H]2c3ccccc3CC[C@@H]21        inactive
11  CCC[CH2][Sn]([CH2]CCC)([CH2]CCC)[O][Sn]([CH2]CCC)([CH2]CCC)[CH2]CCC          active
12  [F][Sn]([c]1ccccc1)([c]1ccccc1)[c]1ccccc1          active
13                                      CSSC        inactive

====

experiment: qHTS assay for small molecule agonists of the p53 signaling pathway (AID 651631); settings: HCT-116 p53RE-bla reporter, beta-lactamase FRET ratio, 16 h; series mostly up to 73.3 µM; note: nearly all actives have a fitted effect of over 15% in size
Results filed as inconclusive are left out. Calls of active or inactive are those of the source. The call rests on the fitted dose curve.
Outcomes: active, inactive

> print(dat)
                                    molecule  category.label
 1                   Cc1cccc(Cc2cnc[nH]2)c1C        inactive
 2  COC(=O)c1ccccc1S(=O)(=O)NC(=O)Nc1nc(C)nc(OC)n1        inactive
 3        CCOP(=S)(OCC)Oc1cc(C)nc(N(CC)CC)n1        inactive
 4          CCOP(=O)(OCC)Oc1cc(C)nc(C(C)C)n1        inactive
 5  N#Cc1ccc(N(CC(N)=O)CC(F)(F)F)cc1C(F)(F)F        inactive
 6  CCOC(=O)CCN(SN(C)C(=O)Oc1cccc2c1OC(C)(C)C2)C(C)C        inactive
 7  CCC[CH2][Sn]([CH2]CCC)([O]C(C)=O)[O]C(C)=O          active
 8                                     C#CCO        inactive
 9  CSC1=N[C@@](C)(c2ccccc2)C(=O)N1Nc1ccccc1        inactive
10               CCC(C)Br (stereo not drawn)        inactive
11                                    N#CCCl        inactive
12  Cc1nn(-c2cc(NS(C)(=O)=O)c(Cl)cc2Cl)c(=O)n1C(F)F        inactive
13                            BrCC(Br)(Br)Br          active
14                              O=NN(CCO)CCO        inactive
15         Clc1ccc(C2(Cn3cncn3)OCCO2)c(Cl)c1        inactive
16  CCCCC(CC)COC(=O)OOC(C)(C)C (stereo not drawn)        inactive
17              CC(Cl)CCl (stereo not drawn)        inactive
18  CC(O)C(=O)[O][Hg][c]1ccccc1 (stereo not drawn)          active

====

assay: Caspase-3/7 induction in HepG2 cells by small molecules, qHTS assay (AID 1346978); settings: HepG2 caspase-3/7 activation, Caspase-Glo luminescence, 17 h; series mostly up to 92.4 µM; note: nearly all actives have a fitted effect of over 15% in size
Records with an inconclusive call do not appear. Active and inactive are the calls of the source. The call rests on the fitted dose curve; in most records, active means well fitted activation curve with a large enough effect in the repeat runs; inconclusive means weak or mixed curves; inactive means flat fitted curve, though single readings scatter.
assay_readout: outcome

> print(dat)
                                    compound  reported.result
 1           Brc1ccc(Oc2ccc(Br)cc2Br)c(Br)c1         inactive
 2  ClC1(Cl)C2(Cl)C3(Cl)C4(Cl)C(Cl)(Cl)C5(Cl)C3(Cl)C1(Cl)C5(Cl)C24Cl (stereo not given)         inactive
 3                        [Cl][Hg][c]1ccccc1         inactive
 4  CC(O)C(=O)[O][Hg][c]1ccccc1 (stereo not given)         inactive
 5  C#CCC1=C(C)C(OC(=O)C2C(C=C(C)C)C2(C)C)CC1=O (stereo not given)         inactive
 6  C[C@]12Cc3cn[nH]c3C[C@@H]1CC[C@@H]1[C@@H]2CC[C@@]2(C)[C@H]1CC[C@]2(C)O         inactive
 7                         Oc1ccc(Cl)c(Cl)c1         inactive
 8                          CN(C)c1ccc(N)cc1         inactive
 9  CC(C)[C@@H](Nc1ccc(C(F)(F)F)cc1Cl)C(=O)OC(C#N)c1cccc(Oc2ccccc2)c1 (stereo not given in full)         inactive
10  CCC[CH2][Sn]([CH2]CCC)([O]C(C)=O)[O]C(C)=O         inactive
11  C[C@H]1[C@H](c2ccc(Cl)cc2)SC(=O)N1C(=O)NC1CCCCC1         inactive
12              CC(=O)[O-].CC(=O)[O-].[Co+2]         inactive
13  O.O.O.O=C([O-])[C@H]([O-])[C@@H]([O-])C(=O)[O-].O=C([O-])[C@H]([O-])[C@@H]([O-])C(=O)[O-].[K+].[K+].[Sb+3].[Sb+3]         inactive
14        COP(=O)(OC)Oc1ccc([N+](=O)[O-])cc1         inactive
15  C[N+]1(C)[C@@H]2CC[C@H]1CC(OC(=O)C(CO)c1ccccc1)C2 (stereo not given in full)         inactive
16                             N#CSCc1ccccc1         inactive
17               Nc1c(Cl)c(Cl)c(Cl)c(Cl)c1Cl         inactive
18       COc1ccc2[nH]cc(CCN(C(C)C)C(C)C)c2c1         inactive
19                             S=C=Nc1ccccc1         inactive
20                          O=C(Cl)c1ccccc1F         inactive
21     Cc1ccccc1OP(=O)(Oc1ccccc1C)Oc1ccccc1C         inactive
22        Cc1ccc([N+](=O)[O-])[c]2c1[O][Hg]2         inactive
23                                    N#CCCl         inactive
24                          Nc1nc(N)nc(Cl)n1         inactive
25                  [Cl-].[Cl-].[Cl-].[Yb+3]         inactive
